# test-name: Solubility of peptide compounds in buffer formulations (Table 5)
# Type: physicochemical
# settings: aqueous buffer; 50 mM phosphate buffer pH 7.4, 2 h agitation, target 1 mg/ml; read-out: Solubility, Buffer pH 7.4
Bridge positions count the residues as written; N and C are the ends. Square brackets hold non-standard residues; d marks the D form. Peptide text beside a SMILES is read from it. * marks the point of attachment. Trp(7-Me) = Cc1cccc2c(C[C@H](N)C(=O)O)c[nH]c12; 2Nal = N[C@@H](Cc1ccc2ccccc2c1)C(=O)O; 3Pal = N[C@@H](Cc1cccnc1)C(=O)O; Aun = NCCCCCCCCCCC(=O)O; Thp = NC1(C(=O)O)CCOCC1; Me2NCH2CH2 = CN(C)CC*; Aib = CC(C)(N)C(=O)O; Sar = CNCC(=O)O
measurement-name: solubility at 2 h (µg/mL)
Number in µg/mL, nothing else.

### Prompt Which value of solubility at 2 h has been reported for CC(=O)NCCCC[C@@H]1NC(=O)[C@H](Cc2c[nH]c3c(C)cccc23)NC(=O)CCCCCCCCCCNC(=O)CC[C@@H](C(=O)N[C@@H](CC(N)=O)C(=O)N[C@@H](Cc2cccnc2)C(=O)N(C)CC(N)=O)NC(=O)C(C)(C)NC(=O)[C@H](Cc2ccc3ccccc3c2)NC(=O)[C@H](Cc2ccc(OCCN(C)C)cc2)NC(=O)C2(CCOCC2)NC1=O [compound 16] ([Aun][Trp(7-Me)]K(Ac)[Thp]Y(Me2NCH2CH2)[2Nal][Aib]EN[3Pal][Sar]-NH2; lactam N-8) in the records?
### Response 260
